Test system: CP252
assay-comment: qHTS profiling for inhibitors of Plasmodium falciparum proliferation (AID 504749); further: nearly all actives have a fitted effect of over 60% in size
conditions-used: P. falciparum in erythrocytes, SYBR Green DNA, 72 h; series mostly up to 28.7 µM
Results filed as inconclusive are left out. Active and inactive are the calls of the source. The call rests on the fitted dose curve; in most records, active means well fitted inhibition curve with a large enough effect; inconclusive means small, poorly fitted or top-dose-only effect; inactive means flat fitted curve, though single readings scatter.
Outcomes you can answer with include only these: active, inactive

// known answers, use as guide
CCOc1ccc(NC(=O)CC(C)O)cc1 (stereo not given) ... inactive
CC(=O)OCC(=O)[C@@]1(OC(C)=O)[C@@H](C)C[C@H]2[C@@H]3C[C@H](F)C4=CC(=O)C=C[C@]4(C)[C@@]3(F)[C@@H](O)C[C@@]21C ... inactive
C[C@H]1C[C@H]2[C@@H]3CCC4=CC(=O)C=C[C@]4(C)[C@@]3(Cl)[C@@H](O)C[C@]2(C)[C@@]1(O)C(=O)CO ... inactive

Would you mind telling me which call this test gave N[C@@H](Cc1cnc[nH]1)C(=O)O ?
inactive

Would you mind telling me which call this test gave O=C1[C@H]2CCCC[C@H]2C(=O)N1CCCCN1CCN(c2nsc3ccccc23)CC1 ?
inactive

Would you mind telling me which call this test gave NCCC(O)(P(=O)(O)O)P(=O)(O)O ?
inactive

Would you mind telling me which call this test gave CCCn1c(=O)[nH]c(=O)c2[nH]cnc21 ?
inactive

Would you mind telling me which call this test gave CCCCCC=CCC=CCCCCCCCC(=O)OCC ?
inactive

Would you mind telling me which call this test gave CC(C)COC(=O)OCN1C(=O)CN(CCN2CC(=O)N(COC(=O)OCC(C)C)C(=O)C2)CC1=O ?
inactive

Would you mind telling me which call this test gave CC(C)(C)CC(C)(C)c1ccc(O)c(Cc2ccc(Cl)cc2Cl)c1 ?
active

Would you mind telling me which call this test gave CC(C)(C)CC(C)(C)c1ccc(OCCOCC[N+](C)(C)Cc2ccccc2)cc1 ?
active

Would you mind telling me which call this test gave Oc1ccc(Cl)cc1Sc1cc(Cl)ccc1O ?
inactive

Would you mind telling me which call this test gave CCCCCCc1ccc(O)cc1O ?
inactive

----------
System: 3D7
assay-comment: qHTS profiling for inhibitors of Plasmodium falciparum proliferation (AID 504749); further: nearly all actives have a fitted effect of over 60% in size; further: potency means the concentration at half of the fitted maximal effect
conditions-used: P. falciparum in erythrocytes, SYBR Green DNA, 72 h; series mostly up to 28.7 µM
Inconclusive results are not listed. Active and inactive are the calls of the source. Calls follow the shape of the dose curve; as a rule, active = well fitted inhibition curve with a large enough effect; inconclusive = small, poorly fitted or top-dose-only effect; inactive = flat fitted curve, though single readings scatter.
metric: Potency

Cc1cc(=O)n(-c2ccccc2)n1C ... inactive
COc1ccc(/C=C/C(=O)c2ccc(OC)cc2OC)cc1 ... 10 µM (active)
O=C(O)CCCCC(=O)O ... inactive
Cc1cc(O)c(C(C)C)cc1Cl ... inactive
Nc1ccc(C(=O)O)cc1 ... inactive

For CCC(C(=O)OCCN(CC)CC)c1ccccc1 (centres undefined) , what is its reported Potency?
inactive

For CC(C)NC[C@@H](O)COc1cccc2ccccc12 , what is its reported Potency?
inactive

For COc1c(C)c2c(c(O)c1C/C=C(\C)CCC(=O)O)C(=O)OC2 , what is its reported Potency?
3.55 µM (active)

For O=C(CCN1CCC(c2ccccc2)C1)c1ccc2c(c1)OCCO2 (centres undefined) , what is its reported Potency?
inactive

For CCCCc1nc(Cl)c(CO)n1Cc1ccc(-c2ccccc2-c2nn[nH]n2)cc1 , what is its reported Potency?
5.62 µM (active)

----------
System: MCC-13
assay-comment: qHTS assay to identify novel small-molecules to repurpose for Merkel cell carcinoma treatment (AID 1296009); further: nearly all actives have a fitted effect of over 60% in size
conditions-used: MCC and control cell lines, CellTiter-Glo viability, 72 h; series mostly up to 46 µM
Results filed as inconclusive are left out. Calls of active or inactive are those of the source. Calls come from the whole dose curve; as a rule, active = well fitted inhibition curve with a large enough effect; inconclusive = small, poorly fitted or top-dose-only effect; inactive = flat fitted curve, though single readings scatter.
metric: outcome

Consider the worked cases shown below.
CCOC(=O)COc1ccc2c(C)c(CCN(CC)CC)c(=O)oc2c1Cl ... inactive
CCCCCC=CCC=CCCCCCCCC(=O)OCC ... inactive
CN1CCC(=C2c3ccccc3Sc3ccccc32)CC1 ... inactive
COc1ccc(OC)c(C(O)CNC(=O)CN)c1 (stereo not given) ... inactive
Oc1cc(O)c2c(c1)O[C@H](c1ccc(O)c(O)c1)[C@H](O)C2 ... inactive

For CCN(CC)C(=O)N1CCN(C)CC1 , what is its reported outcome?
inactive

For C#C[C@]1(O)CC[C@H]2[C@@H]3CCC4=CC(=O)CC[C@@H]4[C@H]3CC[C@@]21C , what is its reported outcome?
inactive

For Oc1c(I)cc(I)c2cccnc12 , what is its reported outcome?
inactive

For CC(=O)[C@H]1CC[C@H]2[C@@H]3C[C@H](C)C4=CC(=O)CC[C@]4(C)[C@H]3[C@@H](O)C[C@]12C , what is its reported outcome?
inactive

For NC(CO)(CO)CO , what is its reported outcome?
inactive
